Target: LC3C (Homo sapiens)
Sequence (Q9BXW4 1-126): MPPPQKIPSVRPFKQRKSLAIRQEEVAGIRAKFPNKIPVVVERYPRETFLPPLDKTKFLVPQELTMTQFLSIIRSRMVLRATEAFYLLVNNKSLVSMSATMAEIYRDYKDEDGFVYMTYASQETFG
pKi: −log10 of the molar value.

compound | system_under_test | pKi
CO[C@@H]1[C@@H](OC(N)=O)[C@@H](O)[C@H](Oc2ccc3c(O)c(NC(=O)c4ccc(O)c(CC=C(C)C)c4)c(=O)oc3c2C)OC1(C)C [compound 12, Novobiocin] | LC3C (Homo sapiens) | 3.76

----------
Overview of reported CSP across a group of compounds:
Target: GABARAPL2 (Homo sapiens, UniProt P60520)
Sequence (P60520 whole entry): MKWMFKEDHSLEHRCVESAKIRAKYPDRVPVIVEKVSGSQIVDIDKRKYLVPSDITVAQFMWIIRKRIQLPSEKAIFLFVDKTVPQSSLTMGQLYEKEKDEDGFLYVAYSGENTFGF
Conditions: residue P30; estimated; GABARAPL2:ligand molar ratio 1:2

compound | u | CSP
O=c1cc(-c2ccccc2)c2c(O)cc(O)cc2o1 [compound 2] | ppm | 0.010
Cc1ccc(C(=O)N(CCCN)[C@@H](c2nc3cc(Cl)ccc3c(=O)n2Cc2ccccc2)C(C)C)cc1 [compound 3] | ppm | 0.002
O=C1Nc2ccc(I)cc2C1=Cc1cc(Br)c(O)c(Br)c1 [compound 4] | ppm | 0.110
O=C1Nc2ccc(Br)cc2C1=Cc1cc(O)c(O)c(Br)c1 [compound 1] | ppm | 0.040
